viability, T/C reference
Tested on: 233499-124-R-J3-PDC spheroids with HUVEC/MSC, viability;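 further: spheroids exposed to agents for seven days before readout; percent viability relative to DMSO vehicle control taken as 100%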
assay-overview: Anticancer human tumor 233499-124-R-J3-PDC patient-derived colon adenocarcinoma cell line growth inhibition [PI3K]
condition-notes: second compound 0.0316 µM; first compound 3.16 µM; hits give low values
recorded-metric: viability, T/C (%)

[[record]]
molecule = "CC(Cn1ccc(-c2ccc(C#N)c(Cl)c2)n1)NC(=O)c1cc(C(C)O)[nH]n1 (stereo not drawn) + COc1c(OCCCN2CCOCC2)ccc2c3n(c(=NC(=O)c4cnc(N)nc4)nc12)CCN3"
unit_name = "%"
measured_value = 77.1

[[record]]
molecule = "C=CC(=O)N1CCN(c2nc(=O)n(-c3c(C)ccnc3C(C)C)c3nc(-c4c(O)cccc4F)c(F)cc23)C(C)C1 (stereo not drawn) + CC(Nc1ccc2c(c1)OCCn1cc(N3C(=O)OCC3C(F)F)nc1-2)C(N)=O"
unit_name = "%"
measured_value = 93.5

[[record]]
molecule = "C[C@@H](NC(=O)c1ncnc(N)c1Cl)c1ncc(C(=O)Nc2cc(C(F)(F)F)c(Cl)cn2)s1 + Cc1nc(NC(=O)N2CCCC2C(N)=O)sc1-c1ccnc(C(C)(C)C(F)(F)F)c1"
unit_name = "%"
measured_value = 112

